# protocol details: qHTS assay to identify small molecule agonists of the vitamin D receptor (VDR) signaling pathway - cell viability counter screen (AID 743224); also: nearly all actives have a fitted effect of over 50% in size
# recorded conditions: VDR-bla HEK293T viability, CellTiter-Glo luminescence, 16 h; series mostly up to 62.6 µM
Results filed as inconclusive are left out. Activity calls are given as the source filed them. Calls follow the shape of the dose curve; as a rule, active = well fitted cell-killing curve with a large enough effect in the repeat runs; inconclusive = weak or mixed curves, or effect the other way; inactive = no such curve, though single readings can be large or run the other way.
Labels: active, inactive

{"molecule": "Clc1ccc(-c2ccc(Cl)c(Cl)c2Cl)c(Cl)c1Cl", "class assignment": "inactive"}
{"molecule": "CCCCN(CCCC)C(=S)[S-].CCCCN(CCCC)C(=S)[S-].[Zn+2]", "class assignment": "active"}
{"molecule": "COc1ccc(/C(=C/C(=O)N2CCOCC2)c2ccc(Cl)cc2)cc1OC", "class assignment": "inactive"}
{"molecule": "BrCBr", "class assignment": "inactive"}
{"molecule": "CCCCCCCCCBr", "class assignment": "inactive"}
{"molecule": "COc1cc(N)c(Cl)cc1C(=O)NC1CN2CCC1CC2 (configuration not stated)", "class assignment": "inactive"}
{"molecule": "S=C(SSC(=S)N1CCCCC1)N1CCCCC1", "class assignment": "active"}
{"molecule": "COc1cccc2c1C(=O)c1c(O)c3c(c(O)c1C2=O)C[C@@](O)(C(=O)CO)CC3OC1CC(N2CCOC(OC)C2)C(O)C(C)O1 (some centres not stated)", "class assignment": "inactive"}
{"molecule": "CCC(C)(C)C(=O)OC1=C(c2ccc(Cl)cc2Cl)C(=O)OC12CCCCC2", "class assignment": "inactive"}
{"molecule": "CC(=O)Nc1ccc2c(c1)Cc1ccccc1-2", "class assignment": "inactive"}
{"molecule": "CCOc1cc(C(C)(C)C)ccc1C1COC(c2c(F)cccc2F)=N1 (configuration not stated)", "class assignment": "active"}
{"molecule": "CCN(CC)c1c([N+](=O)[O-])cc(C(F)(F)F)c(N)c1[N+](=O)[O-]", "class assignment": "inactive"}
